Attribute: Plant response rating, Wheat
tested on: wheat; experiment: Test B pre/postemergence wheat; type: in vivo, Triticum aestivum; conditions: Postemergence, Rate 62 g/ha; scale 0 to 10, 0 is no effect, 10 is complete control
Lab note: record just the number, no unit beside it.

Check out these entries, answers already filled in.
[
  {
    "Compound": "C=C(Cl)Cn1c(=O)on(C(=O)N(c2ccccc2)C(C)C)c1=O",
    "Target desc": "wheat",
    "Plant response rating, Wheat": 0
  },
  {
    "Compound": "CC(C)N(C(=O)n1oc(=O)n(CC(=O)C2CCC2)c1=O)c1ccc(F)cc1F",
    "Target desc": "wheat",
    "Plant response rating, Wheat": 0
  },
  {
    "Compound": "CC(C)N(C(=O)n1oc(=O)n(C(C)C(=S)N(C)C)c1=O)c1ccc(F)cc1F (stereo not drawn)",
    "Target desc": "wheat",
    "Plant response rating, Wheat": 0
  },
  {
    "Compound": "C#CCn1c(=O)on(C(=O)N(c2ccc(F)cc2F)C(C)C)c1=O",
    "Target desc": "wheat",
    "Plant response rating, Wheat": 0
  },
  {
    "Compound": "CC(CBr)Cn1c(=O)on(C(=O)N(c2ccc(F)cc2)C(C)C)c1=O (stereo not drawn)",
    "Target desc": "wheat",
    "Plant response rating, Wheat": 0
  }
]

Next item in the queue.
Input line: Find the recorded Plant response rating, Wheat belonging to C#CC(C)n1c(=O)on(C(=O)N(c2ccccc2)C(C)C)c1=O (stereo not drawn) and report it.
Output line: 0

* * *

Recorded Wheat plant response rating values for a group of compounds are listed next.
test system: wheat; test: Test B pre/postemergence wheat; type: in vivo, Triticum aestivum; settings: Preemergence, Rate 62 g/ha; scale of 0 to 10 where 0 is no effect and 10 is complete control
Answer using only a numeral; do not append any unit.

For orientation, consider the following solved cases.
[
  {
    "Compound": "CC(C)N(C(=O)n1oc(=O)n(CCCCl)c1=O)c1ccc(F)cc1",
    "Wheat plant response rating": 0
  },
  {
    "Compound": "CCN(Cc1ccccc1)C(=O)n1oc(=O)n(C(C)C)c1=O",
    "Wheat plant response rating": 0
  },
  {
    "Compound": "COC(=O)C=CCn1c(=O)on(C(=O)N(c2ccc(F)cc2)C(C)C)c1=O",
    "Wheat plant response rating": 0
  },
  {
    "Compound": "CC(C)N(C(=O)n1oc(=O)n(CCC(=O)N(C)C)c1=O)c1ccc(F)cc1",
    "Wheat plant response rating": 0
  },
  {
    "Compound": "CC(C)N(C(=O)n1oc(=O)n(CCF)c1=O)c1ccccc1",
    "Wheat plant response rating": 6
  }
]

Input line: Form field: reported Wheat plant response rating of Cc1nc(C)c(-n2c(=O)on(C(=O)N(c3ccc(F)cc3)C(C)C)c2=O)s1
Output line: 0

* * *

tested on: wild oat; assay: Test B pre/postemergence wild oat; assay type: in vivo, Avena fatua; settings: Preemergence, Rate 500 g/ha; scale 0 to 10, 0 is no effect, 10 is complete control
Value kind: Wild oats plant response rating
Please give only the number in your answer, with no unit.

[
  {
    "Molecule": "CCOP(=O)(Cn1c(=O)on(C(=O)N(c2ccccc2)C(C)C)c1=O)OCC",
    "Wild oats plant response rating": 7
  },
  {
    "Molecule": "CC(C)Cn1c(=O)on(C(=O)N(c2ccccc2)C(C)C)c1=O",
    "Wild oats plant response rating": 10
  },
  {
    "Molecule": "CCc1nc(C)c(C(C)n2c(=O)on(C(=O)N(c3ccc(F)cc3)C(C)C)c2=O)s1 (stereo not shown)",
    "Wild oats plant response rating": 0
  }
]

Continue with the molecule presented below.
Input line: Need Wild oats plant response rating, item CC(C)N(C(=O)n1oc(=O)n(C(C)C#N)c1=O)c1ccccc1 (stereo not shown)
Output line: 3
